Readings of binding signal for the listed binders
Molecular target: AGO2 A367P (Homo sapiens, UniProt Q9UKV8 1-859, A367P;S387D;S824A;S828D;S831D;S834A)
Sequence (Q9UKV8 whole entry A367P/S387D/S824A/S828D/S831D/S834A): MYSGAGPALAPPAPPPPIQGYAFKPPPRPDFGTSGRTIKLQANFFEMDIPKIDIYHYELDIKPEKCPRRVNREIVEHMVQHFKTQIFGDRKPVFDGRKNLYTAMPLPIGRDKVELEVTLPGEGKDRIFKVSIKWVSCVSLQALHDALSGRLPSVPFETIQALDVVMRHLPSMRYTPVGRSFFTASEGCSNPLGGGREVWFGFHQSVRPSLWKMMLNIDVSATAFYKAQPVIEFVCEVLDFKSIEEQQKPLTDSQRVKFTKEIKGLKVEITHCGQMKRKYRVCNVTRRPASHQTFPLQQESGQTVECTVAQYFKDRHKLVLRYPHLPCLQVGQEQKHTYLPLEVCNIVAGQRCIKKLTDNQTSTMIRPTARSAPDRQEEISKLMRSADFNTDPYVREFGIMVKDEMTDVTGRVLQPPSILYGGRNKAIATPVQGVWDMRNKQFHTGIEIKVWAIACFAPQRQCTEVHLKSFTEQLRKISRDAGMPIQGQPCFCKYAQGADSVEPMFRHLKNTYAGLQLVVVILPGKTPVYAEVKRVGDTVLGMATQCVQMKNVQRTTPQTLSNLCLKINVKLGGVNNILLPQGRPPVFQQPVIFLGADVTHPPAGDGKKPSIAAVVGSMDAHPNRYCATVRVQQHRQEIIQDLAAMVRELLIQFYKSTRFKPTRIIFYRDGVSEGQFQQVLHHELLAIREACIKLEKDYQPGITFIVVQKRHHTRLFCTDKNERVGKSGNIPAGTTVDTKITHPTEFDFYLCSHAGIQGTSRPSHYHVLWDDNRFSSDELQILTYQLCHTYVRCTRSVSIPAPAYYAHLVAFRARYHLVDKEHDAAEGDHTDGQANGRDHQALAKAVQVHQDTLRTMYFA
Assay: RNA Bind-n-Seq (nitrocellulose filter binding and sequencing); miR-122 guide loaded in AGO2; 60 min incubation; 30 mM Tris pH 8.0, 100 mM potassium acetate, 2 mM magnesium acetate, 0.5 mM TCEP, 0.005% NP-40, 0.01 mg/ml yeast tRNA; 3 nM AGO2-miR-122, 100 nM RNA library; 60; high values mean tight binding
Conditions: protein: recombinant; tags: His6 (N-terminal, pFastBac HTA)

Documented binding signal of ACGTCTCG (ssRNA, constant regions annealed to DNA blockers; guide miR-122 5' phosphate) RNA 1: GAGUUCUACAGUCCGACGAUCCCAACACGUCUCGCACCUGGAAUUCUCGGGUGCCAA RNA 2: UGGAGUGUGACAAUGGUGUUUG DNA 1: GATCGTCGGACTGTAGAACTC DNA 2: TTGGCACCCGAGAATTCCA : 0.146 fold enrichment over input

Documented binding signal of GTGTTTCG (ssRNA, constant regions annealed to DNA blockers; guide miR-122 5' phosphate) RNA 1: GAGUUCUACAGUCCGACGAUCCCAACGUGUUUCGCACCUGGAAUUCUCGGGUGCCAA RNA 2: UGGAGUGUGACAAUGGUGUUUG DNA 1: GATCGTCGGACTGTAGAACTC DNA 2: TTGGCACCCGAGAATTCCA : 0.133 fold enrichment over input

Documented binding signal of GCGCTTTG (ssRNA, constant regions annealed to DNA blockers; guide miR-122 5' phosphate) RNA 1: GAGUUCUACAGUCCGACGAUCCCAACGCGCUUUGCACCUGGAAUUCUCGGGUGCCAA RNA 2: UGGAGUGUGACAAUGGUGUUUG DNA 1: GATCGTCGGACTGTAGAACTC DNA 2: TTGGCACCCGAGAATTCCA : 0.137 fold enrichment over input

Documented binding signal of ATGCTTTA (ssRNA, constant regions annealed to DNA blockers; guide miR-122 5' phosphate) RNA 1: GAGUUCUACAGUCCGACGAUCCCAACAUGCUUUACACCUGGAAUUCUCGGGUGCCAA RNA 2: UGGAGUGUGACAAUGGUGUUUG DNA 1: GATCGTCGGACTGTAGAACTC DNA 2: TTGGCACCCGAGAATTCCA : 0.175 fold enrichment over input

Origin of the recorded values: paper PMC12529666
